Parameter log10 ED50: see the listing below.
Test: Diarrhoea activity
Conditions: rat, in vivo, po
Structures can show the parent of a compound that is named as a salt.
property-measured: log10 ED50 (log10 of the value in mg/kg)

[[record]]
compound = "CCCN1CCC=C(C=NOC)C1"
experimental_result = 0.23

[[record]]
compound = "C=CCN1CCC=C(C=NOC)C1"
experimental_result = 0.08

[[record]]
compound = "CCON=CC1=CCCN(C)C1.Cl"
experimental_result = 1.70

[[record]]
compound = "CON=CC1=CCCN(C)C1 [Example 1, hydrochloride]"
experimental_result = -0.22

[[record]]
compound = "CON=CC1=CCCNC1.Cl"
experimental_result = -0.82

[[record]]
compound = "CCCCN1CCC=C(C=NOC)C1"
experimental_result = 0.54

[[record]]
compound = "CCN1CCC=C(C=NOC)C1.Cl"
experimental_result = 1.00

[[record]]
compound = "CCCCCN1CCC=C(C=NOC)C1"
experimental_result = 0.70

[[record]]
compound = "C#CCON=CC1=CCCN(C)C1"
experimental_result = 0.74

[[record]]
compound = "COC(=O)C1=CCCN(C)C1 [Arecoline HBr, reference compound]"
experimental_result = 1.54


* * *

Assay: Duration of action: variations of the body temperature
Type: in vivo, mouse
Conditions: os, 60 minutes; dose mg/kg: Example 3 0,15; 7 1,25; 8 0,5; 10 0,5; arecoline HBr 200; ** p < 0,01 vs controls (all values)
property-measured: variation of the body temperature

[[record]]
molecule = "C=CCN1CCC=C(C=NOC)C1 [Example 10]"
experimental_result = "-0,7 °C"

[[record]]
molecule = "CCN1CCC=C(C=NOC)C1.Cl [Example 7]"
experimental_result = "-1,1 °C"

[[record]]
molecule = "COC(=O)C1=CCCN(C)C1 [Arecoline HBr, reference compound]"
experimental_result = "-1,0 °C"

[[record]]
molecule = "CON=CC1=CCCNC1.Cl [Example 3]"
experimental_result = "-0,8 °C"

[[record]]
molecule = "CCCN1CCC=C(C=NOC)C1 [Example 8]"
experimental_result = "-1,3 °C"


* * *

Test: Duration of action: variations of the body temperature
Type: in vivo, mouse
Conditions: sc, 60 minutes; dose mg/kg: Example 3 0,15; 7 1,25; 8 1; 10 0,75; arecoline HBr 3,5; ** p < 0,01 for Examples 3, 7, 8, 10
property-measured: variation of the body temperature

[[record]]
compound = "CON=CC1=CCCNC1.Cl"
experimental_result = "-0,8 °C"

[[record]]
compound = "C=CCN1CCC=C(C=NOC)C1"
experimental_result = "-1,0 °C"

[[record]]
compound = "CCN1CCC=C(C=NOC)C1.Cl"
experimental_result = "-1,0 °C"

[[record]]
compound = "COC(=O)C1=CCCN(C)C1 [Arecoline HBr, reference compound]"
experimental_result = "-0,1 °C"

[[record]]
compound = "CCCN1CCC=C(C=NOC)C1"
experimental_result = "-1,2 °C"


* * *

ED (-1 C) by entry:
Assay: Hypothermic activity (central cholinomimetic activity)
Assay type: in vivo
Settings: Mus musculus, sc; sub-cutaneous; dose to reduce the body temperature by 1° C.; read-out: Effective dose (-1° C.)
Where a name gives a salt, the structure may show the parent alone.
property-measured: ED (-1 C) (mg/kg)

[[record]]
compound = "CON=CC1=CCCNC1.Cl"
scale_unit = "mg/kg"
experimental_result = 0.12

[[record]]
compound = "CCCN1CCC=C(C=NOC)C1"
scale_unit = "mg/kg"
experimental_result = 0.83

[[record]]
compound = "C=CCN1CCC=C(C=NOC)C1"
scale_unit = "mg/kg"
experimental_result = 0.86

[[record]]
compound = "CCCCCN1CCC=C(C=NOC)C1"
scale_unit = "mg/kg"
experimental_result = 4

[[record]]
compound = "CCCCN1CCC=C(C=NOC)C1"
scale_unit = "mg/kg"
experimental_result = 0.85

[[record]]
compound = "CCN1CCC=C(C=NOC)C1.Cl"
scale_unit = "mg/kg"
experimental_result = 1.16

[[record]]
compound = "C#CCON=CC1=CCCN(C)C1"
scale_unit = "mg/kg"
experimental_result = 0.63

[[record]]
compound = "CCON=CC1=CCCN(C)C1.Cl"
scale_unit = "mg/kg"
experimental_result = 11

[[record]]
compound = "CON=CC1=CCCN(C)C1 [Example 1, hydrochloride]"
scale_unit = "mg/kg"
experimental_result = 0.14

